Entry source: patent US20110053773A1

Please respond with reported Phytotoxicity Chlorosis for every item in the list.
# System: kale 'Red Russian'
# Experimental protocol: Visual injury of kale after insecticide, fungicide, PGRs, safeners (Example 4)
# Conditions used: 14 DA-A, rates g ai/ha: chlropyrifos 3370, chlorothalonil 7900, paclobutrazol 9.7, mepiquat-chloride 37, + NIS 0.25 % v/v
Answers are plain numbers, in %.

Fill in Phytotoxicity Chlorosis for each of the 4 compounds listed.
1. C[N+]1(C)CCCCC1 [mepiquat-chloride]
2. CC(C)(C)[C@@H](O)[C@@H](Cc1ccc(Cl)cc1)n1cncn1 (racemic)
3. N#Cc1c(Cl)c(Cl)c(Cl)c(C#N)c1Cl
4. CCOP(=S)(OCC)Oc1nc(Cl)c(Cl)cc1Cl

Response:
[4, 16, 6, 13]
